pIC50 overview
system: human P2X3 receptor (Homo sapiens (Human))
Sequence (P56373 whole entry): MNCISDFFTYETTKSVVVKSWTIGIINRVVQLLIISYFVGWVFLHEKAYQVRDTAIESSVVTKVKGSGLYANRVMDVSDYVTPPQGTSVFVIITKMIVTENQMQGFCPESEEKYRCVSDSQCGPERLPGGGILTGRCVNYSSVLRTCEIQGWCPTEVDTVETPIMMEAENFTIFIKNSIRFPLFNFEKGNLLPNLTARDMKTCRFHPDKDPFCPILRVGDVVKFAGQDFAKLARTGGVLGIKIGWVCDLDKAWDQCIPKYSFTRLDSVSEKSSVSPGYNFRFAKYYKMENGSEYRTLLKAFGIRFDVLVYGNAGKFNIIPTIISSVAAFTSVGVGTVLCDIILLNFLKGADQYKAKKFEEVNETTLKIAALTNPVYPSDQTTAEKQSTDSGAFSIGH
method: Evaluation of human P2X3 receptor inhibitory activity (Fluo-3 calcium fluorescence, FDSS 3000, ATP stimulation)
Type: cell-based
run_conditions: C6BU-1 cells stably expressing human P2X3 receptor
pIC50: −log10 of the molar value.

substance_smiles: CCOc1ccc(/N=c2\[nH]c(=O)n(C[C@H](C)C(=O)O)c(=O)n2Cc2ccc(Cl)cc2)cc1F
pIC50: 7.51
--
substance_smiles: Cc1ccc(Cn2c(=O)n(C[C@H](C)C(=O)O)c(=O)[nH]/c2=N\c2ccc3nc(C)sc3c2)cc1
pIC50: 7.92
--
substance_smiles: Cc1ccc(Cn2c(=O)n(C[C@H](C)C(=O)O)c(=O)[nH]/c2=N\c2ccc(NC(=O)C(C)C)c(Cl)c2)cc1
pIC50: 6.22
--
substance_smiles: Cc1ccc(Cn2c(=O)n(C[C@H](C)C(=O)O)c(=O)[nH]/c2=N\c2ccc(/C=C/C3CC3)cc2)cc1
pIC50: 7.35
--
substance_smiles: Cc1cc(Oc2ccc(/N=c3\[nH]c(=O)[nH]c(=O)n3Cc3ccc(Cl)cc3)cc2)ccn1
pIC50: 7.01
--
substance_smiles: COC(=O)c1ccc(Oc2ccc(/N=c3\[nH]c(=O)n(C)c(=O)n3Cc3ccc(C)cc3)cc2)cc1
pIC50: 8.22
--
substance_smiles: CNC(=O)CCn1c(=O)[nH]/c(=N\c2ccc(O[C@H](C)C(F)(F)F)cc2)n(Cc2ccc(Cl)cc2)c1=O
pIC50: 7.66

====

system: human P2X3 receptor (Homo sapiens (Human))
method: Evaluation of human P2X3 receptor inhibitory activity (Fluo-3 calcium fluorescence, FDSS 3000, ATP stimulation);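 further: stimulus was 50 nM ATP with fluorescence followed for 3 min, and the response per well was peak post-ATP fluorescence divided by the reading at measurement start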
Assay type: cell-based
run_conditions: human P2X3 receptor, Test Example 1

substance_smiles: Cn1c(=O)[nH]/c(=N\c2ccc(Oc3cccc(C#N)n3)cc2)n(Cc2ccc(Cl)cc2)c1=O
IC50 (nM): 8
--
substance_smiles: Cc1nsc(Oc2ccc(/N=c3\[nH]c(=O)n(CC(CO)CO)c(=O)n3Cc3ccc(F)cc3)cc2)n1
IC50 (nM): 14
--
substance_smiles: O=c1[nH]/c(=N\c2ccc(Oc3ccon3)c(F)c2)n(Cc2ccc(Cl)cc2)c(=O)n1C(CO)CO
IC50 (nM): 73
--
substance_smiles: COC(=O)[C@@H](C)Cn1c(=O)[nH]/c(=N\c2ccc(-c3noc(C)n3)cc2)n(Cc2ccc(Cl)cc2)c1=O
IC50 (nM): 26
--
substance_smiles: Cc1cnc(Oc2ccc(/N=c3\[nH]c(=O)n(CC(N)=O)c(=O)n3Cc3ccc(Cl)cc3)cc2)s1
IC50 (nM): 16
--
substance_smiles: Cc1ccc(Cn2c(=O)n(CCC(=O)O)c(=O)[nH]/c2=N\c2ccc(Oc3ccc(C#N)cn3)cc2)cc1
IC50 (nM): 8
--
substance_smiles: CCOC(=O)C1(Cn2c(=O)[nH]/c(=N\c3ccc4nc(CC)sc4c3)n(Cc3ccc(C)cc3)c2=O)CC1
IC50 (nM): 3
--
substance_smiles: Cc1cnc(Oc2ccc(/N=c3\[nH]c(=O)n(CC(CO)CO)c(=O)n3Cc3ccc(Cl)cc3)cc2)s1
IC50 (nM): 3
--
substance_smiles: COC(=O)C1(Cn2c(=O)[nH]/c(=N\c3ccc(OC(C)C)c(C)c3)n(Cc3ccc(Cl)cc3)c2=O)COC1
IC50 (nM): 2
--
substance_smiles: CCn1c(=O)[nH]/c(=N\c2ccc(Oc3cccc(C(=O)O)n3)c(F)c2)n(Cc2ccc(Cl)cc2)c1=O
IC50 (nM): 3
--
substance_smiles: CC(=O)Nc1ccc(Oc2ccc(/N=c3\[nH]c(=O)n(C)c(=O)n3Cc3ccc(Cl)cc3)cc2)cn1
IC50 (nM): 5
--
substance_smiles: CCn1c(=O)[nH]/c(=N\c2ccc(Oc3cc(F)cc(C(N)=O)c3)cc2)n(Cc2ccc(Cl)cc2)c1=O
IC50 (nM): 2
--
substance_smiles: Cc1cnc(Oc2ccc(/N=c3\[nH]c(=O)n(CC(=O)NCCO)c(=O)n3Cc3ccc(Cl)cc3)cc2)s1
IC50 (nM): 6
--
substance_smiles: O=c1[nH]/c(=N\c2ccc(Oc3nccs3)cc2)n(Cc2ccc(F)cc2)c(=O)n1CCCO
IC50 (nM): 35

Numbers sourced from patent US9718790B2.
